Known percent viability of a selection of sequences
- Test system: MCF10A
- test-description: percent viability (nuclei count relative to siNT); higher = more viable cells
- measurement-setup: 20 nM; 72 h
# value in %; strip the unit string

Prompt: Suppose we examine the sequence AACUGGAUCAAUUAUAGGAGUG [hsa-miR-1243] ; what percent viability value has been reported?
Response: 174

Prompt: Another sequence: CCCGGAGCCAGGAUGCAGCUC [hsa-miR-1203]
Response: 68.6

Prompt: Another sequence: AGACUGACCUUCAACCCCACAG [hsa-miR-6855-3p]
Response: 75.7

Prompt: Another sequence: CCUGCUGGUCAGGAGUGGAUACUG [hsa-miR-3692-5p]
Response: 32.9

Prompt: Another sequence: AAGUGCCGCCAUCUUUUGAGUGU [hsa-miR-371a-3p]
Response: 45.8

Prompt: Another sequence: UCUCUGAGCAAGGCUUAACACC [hsa-miR-4653-5p]
Response: 50.6

Prompt: Another sequence: AGGACUGGACUCCCGGCAGCCC [hsa-miR-4515]
Response: 37.2

Prompt: Another sequence: GGAGGCCGGGGUGGGGCGGGGCGG [hsa-miR-6089]
Response: 153

Prompt: Another sequence: UUCCACUGCCACUACCUAAUUU [hsa-miR-6509-3p]
Response: 56.2

Prompt: Another sequence: UGUGGGACUGCAAAUGGGAG [hsa-miR-4648]
Response: 41.5

Prompt: Another sequence: UAUCUGCUGGGCUUUCUGGUGUU [hsa-miR-4686]
Response: 34.5
